Hello, the source for this data is patent US6218393A, in case you need it.

Test system: AR 1.0 cells
PROTOCOL_DETAILS: Potentiation index with doxorubicin titration
Type: cell-based, mouse
STUDY_CONDITIONS: Table C1, RMA 100 nM
Protocol: The EMT6 mouse mammary carcinoma cell line and the MDR resistant subline AR 1.0 were cultured in RPMI 1640 medium containing 10% foetal calf serum and 2 mM glutamine at 37° C. in 5% CO2. […] (b) Cells were cultured for four days with a titration of doxorubicin (0.263 nM-17.24 μM) in the presence of a fixed concentration of each compound. Proliferation was quantified as described by Skehen et al, loc cit. […]
EXPERIMENTAL_READOUT: Potentiation Index at RMA concentration 100 nM
Just the number, please, no unit attached.

Past entries and their recorded results:
CN(CCc1ccc(NC(=O)c2ccccc2NC(=O)c2cnc3ccccc3c2)cc1)Cc1ccc(N(C)C)cc1 65
COc1cc2c(cc1OC)CN(CCc1ccc(NC(=O)c3nccnc3NC(=O)c3cnc4ccccc4c3)cc1)CC2 79
COc1cc2c(cc1OC)CN(CCc1ccc(NC(=O)c3cc(N(C)C)ccc3NC(=O)c3cnc4ccccc4n3)cc1)CC2 354

With those in mind, consider the next compound.
**Query** Hello, please tell me recorded Potentiation Index at RMA concentration 100 nM for this one: CCN(CCc1ccc(NC(=O)c2ccccc2NC(=O)c2cnc3ccccc3c2)cc1)Cc1ccc(OC)c(OC)c1
**Result** 131

====

Tested on: AR 1.0 cells
PROTOCOL_DETAILS: Potentiation of doxorubicin toxicity: proliferation assay (sulphorhodamine B)
Format: cell-based, mouse
STUDY_CONDITIONS: with fixed doxorubicin 0.34 μm; four days; 5760 min; read-out: Toxicity with Cytotoxic Agent (IC50)
EXPERIMENTAL_READOUT: IC50 (nM)
The response must be a number in nM with no trailing unit.

Past entries and their recorded results:
COc1cc2c(cc1OC)CN(CCNC(=O)c1ccccc1NC(=O)c1ccc(OC3CCCCC3)cc1)CC2 90
COc1cc2c(cc1OC)CN(CCNC(=O)c1ccccc1NC(=O)c1ccc(Br)cc1)CC2 500
COc1cc2c(cc1OC)CN(CCNC(=O)c1ccccc1NC(=O)c1ccc(N(C)C)cc1)CC2 300
COc1cc2c(cc1OC)CN(CCc1ccc(NC(=O)c3ccccc3NC(=O)c3ccc(C)cc3)cc1)CC2 60

**Query** Hello, please tell me recorded IC50 for this one: COc1cc2c(cc1OC)CN(CCc1ccc(NC(=O)c3ccccc3NC(=O)c3cccc4ccccc34)cc1)CC2
**Result** 75

**Query** Hello, please tell me recorded IC50 for this one: COc1cc2c(cc1OC)CN(CCNC(=O)c1ccccc1NC(=O)c1ccc([N+](=O)[O-])cc1)CC2
**Result** 1500

**Query** Hello, please tell me recorded IC50 for this one: COc1cc2c(cc1OC)CN(CCNC(=O)c1ccccc1NC(=O)c1ccc(C(C)C)cc1)CC2
**Result** 150

====

Entries annotated with measured Potentiation Index at RMA concentration 10 nM
System: AR 1.0 cells
PROTOCOL_DETAILS: Potentiation index with doxorubicin titration
Type: cell-based, mouse
STUDY_CONDITIONS: Table C1, RMA 10 nM
Just the number, please, no unit attached.

COMPOUND	QUANTITATIVE_READOUT
COc1cc2c(cc1OC)CN(CCc1ccc(NC(=O)c3cc(N(C)C)ccc3NC(=O)c3cnc4ccccc4n3)cc1)CC2	2.68
COc1cc2c(cc1OC)CN(CCc1ccc(NC(=O)c3cscc3NC(=O)c3ccc(C)nc3)cc1)CC2	1.5
O=C(Nc1ccccc1C(=O)Nc1ccc(CCN2CCc3cc4c(cc3C2)OCO4)cc1)c1cnc2ccccc2c1	1

With those in mind, consider the next compound.
**Query** Hello, please tell me recorded Potentiation Index at RMA concentration 10 nM for this one: COc1cc2c(cc1OC)CN(CC(O)COc1ccc(NC(=O)c3ccccc3NC(=O)c3cnc4ccccc4c3)cc1)CC2 (stereo not shown)
**Result** 16

====

Tested on: AR 1.0 cells
PROTOCOL_DETAILS: Potentiation of doxorubicin toxicity: proliferation assay (sulphorhodamine B)
Type: cell-based, mouse
STUDY_CONDITIONS: with fixed doxorubicin 0.34 μm; four days; 5760 min; read-out: Toxicity with Cytotoxic Agent (IC50)
EXPERIMENTAL_READOUT: IC50
Record the result as a number with its unit.

Past entries and their recorded results:
CCN(CC)c1ccc(C(=O)Nc2ccccc2C(=O)NCCN2CCc3cc(OC)c(OC)cc3C2)cc1 240 nM
COc1cc2c(cc1OC)CN(CCc1ccc(NC(=O)c3ccccc3NC(=O)c3ccc(C(C)C)cc3)cc1)CC2 65 nM
COc1cc2c(cc1OC)CN(CCCNC(=O)c1ccccc1NC(=O)c1ccc(C3CCCCC3)cc1)CC2 50 nM

**Query** Hello, please tell me recorded IC50 for this one: COc1cc2c(cc1OC)CN(CCNC(=O)c1ccccc1NC(=O)c1ccc(Oc3ccccc3)cc1)CC2
**Result** 60 nM

====

Entries annotated with measured pIC50
Tested on: AR 1.0 cells
PROTOCOL_DETAILS: Potentiation of doxorubicin toxicity: proliferation assay (sulphorhodamine B)
Type: cell-based, mouse
STUDY_CONDITIONS: with fixed doxorubicin 0.34 μm; four days; 5760 min; read-out: Toxicity with Cytotoxic Agent (IC50)
Scale note: pIC50 = -log10(concentration in M).

Past entries and their recorded results:
COc1cc2c(cc1OC)CN(CCc1ccc(NC(=O)c3ccccc3NC(=O)c3cnc4ccccc4c3)cc1)CC2 8.11
COc1cc2c(cc1OC)CN(CCc1ccc(NC(=O)c3ccccc3NC(=O)c3ccccc3F)cc1)CC2 7.30
COc1cc2c(cc1OC)CN(CCNC(=O)c1ccccc1NC(=O)c1ccccc1)CC2 5.89
COc1cc2c(cc1OC)CN(CCNC(=O)c1ccccc1NC(=O)c1cc3ccccc3[nH]1)CC2 6.30
COc1cc2c(cc1OC)CN(CCNC(=O)c1ccccc1NC(=O)c1ccsc1)CC2 6.10
COc1cc2c(cc1OC)CN(CCNC(=O)c1cc(-c3ccccc3)ccc1NC(=O)c1ccc(C(C)C)cc1)CC2 6.70
COc1cc2c(cc1OC)CN(CCc1ccc(NC(=O)c3ccc(NO)cc3NC(=O)c3cnc4ccccc4n3)cc1)CC2 7.85
COc1cc2c(cc1OC)CN(CCNC(=O)c1ccccc1NC(=O)c1ccc(C(C)(C)C)cc1)CC2 7.30

**Query** Hello, please tell me recorded pIC50 for this one: COc1cc2c(cc1OC)CN(Cc1ccc(NC(=O)c3ccccc3NC(=O)c3cnc4ccccc4n3)cc1)CC2
**Result** 7.85

**Query** Hello, please tell me recorded pIC50 for this one: COc1cccc(C(=O)Nc2ccccc2C(=O)Nc2ccc(CCN3CCc4cc(OC)c(OC)cc4C3)cc2)c1
**Result** 7.30

**Query** Hello, please tell me recorded pIC50 for this one: COc1cc2c(cc1OC)CN(CCc1ccc(NC(=O)c3ccc(C(F)(F)F)cc3NC(=O)c3cnc4ccccc4n3)cc1)CC2
**Result** 8.00

**Query** Hello, please tell me recorded pIC50 for this one: COc1cc2c(cc1OC)CN(CCc1ccc(NC(=O)c3ccccc3NC(=O)c3cnccn3)cc1)CC2
**Result** 7.30

**Query** Hello, please tell me recorded pIC50 for this one: COc1cc2c(cc1OC)CN(CCc1ccc(NC(=O)c3ccccc3NC(=O)c3ccncc3)cc1)CC2
**Result** 6.46

**Query** Hello, please tell me recorded pIC50 for this one: COc1cc2c(cc1OC)CN(CCc1ccc(NC(=O)c3ccccc3NC(=O)c3ccccc3Cl)cc1)CC2
**Result** 7.30

**Query** Hello, please tell me recorded pIC50 for this one: COc1cc2c(cc1OC)CN(CCNC(=O)c1ccccc1NC(=O)c1ccc(OCc3ccccc3)cc1)CC2
**Result** 6.74

====

Test system: AR 1.0 cells
PROTOCOL_DETAILS: Potentiation index with doxorubicin titration
Type: cell-based, mouse
STUDY_CONDITIONS: Table C1, RMA 100 nM
Respond with 1 for Potentiation Index at RMA concentration 100 nM values of 70 and above, -1 for values below.

Please review the entries below; each comes with its answer.
Cc1ccc(CN(C)CCc2ccc(NC(=O)c3ccccc3NC(=O)c3cnc4ccccc4c3)cc2)cc1C -1
CN(CCc1ccc(NC(=O)c2ccccc2NC(=O)c2cnc3ccccc3c2)cc1)Cc1ccc2c(c1)OCCO2 -1
COc1cc2c(cc1OC)CN(CCc1ccc(NC(=O)c3ccccc3NC(=O)c3cnc4ccccc4c3)c(C)c1)CC2 -1

**Query** Is Potentiation Index at RMA concentration 100 nM for O=C(Nc1ccccc1C(=O)Nc1ccc(CCN2CCc3cc4c(cc3C2)OCO4)cc1)c1cnc2ccccc2c1 at or above 70?
**Result** 1

**Query** Is Potentiation Index at RMA concentration 100 nM for COc1ccc(CN2CCc3ccc(NC(=O)c4ccccc4NC(=O)c4cnc5ccccc5n4)cc3C2)cc1OC at or above 70?
**Result** -1

**Query** Is Potentiation Index at RMA concentration 100 nM for COc1cc2c(cc1OC)CN(CCc1ccc(NC(=O)c3sccc3NC(=O)c3cnc4ccccc4n3)cc1)CC2 at or above 70?
**Result** 1

**Query** Is Potentiation Index at RMA concentration 100 nM for COc1cc(CN(C)CCc2ccc(NC(=O)c3ccccc3NC(=O)c3cnc4ccccc4c3)cc2)ccc1OC(C)C at or above 70?
**Result** -1

**Query** Is Potentiation Index at RMA concentration 100 nM for COc1cc2c(cc1OC)CN(CCc1ccc(NC(=O)c3ccccc3NC(=O)c3csc(C)n3)cc1)CC2 at or above 70?
**Result** -1

**Query** Is Potentiation Index at RMA concentration 100 nM for CCCCN(CCc1ccc(NC(=O)c2ccccc2NC(=O)c2cnc3ccccc3c2)cc1)Cc1ccc(OC)c(OC)c1 at or above 70?
**Result** 1
